The origin of these recorded values is ChEMBL document CHEMBL4020848.

substances and their reported IC50
Tested on: Staphylococcus aureus
MEASUREMENT NOTES: Growth inhibition of Staphylococcus aureus ATCC 25923 measured every 10 mins for 4 hrs
Type: functional

# IC50 (substance: H-KIGKALGKALKALGKALGKA-NH2 ) is 2300 nM

###

MEASUREMENT NOTES: Selectivity index, ratio of HC50 for human RBC to MIC for Escherichia coli
# maps each entry to its Selectivity Index

// solved cases for Selectivity Index follow
| SUBSTANCE | MEASURED QUANTITY | RESULT |
| --- | --- | --- |
| H-KIAKGALKALKIAKGALKAL-NH2 | Selectivity Index | < 1 |
| H-KIAKGALKALKIAKVALKAL-NH2 | Selectivity Index | 7 |
| H-KIGKALGKALKALGKALGKA-NH2 | Selectivity Index | < 1 |

Item: H-KIALKALKALKALGKALKAL-NH2 | Selectivity Index: < 1

###

# Selectivity Index listing for each entry below
MEASUREMENT NOTES: Selectivity index, ratio of HC50 for human RBC to MIC for Acinetobacter baumannii

Looking up H-KIAKGALKALKIAKVALKAL-NH2 , I see its Selectivity Index listed as 60

GET /value?item= H-KIALKALKALKALGKALKAL-NH2 &field=Selectivity Index returns < 1

Kindly note the recorded Selectivity Index for H-KIGKALGKALKALGKALGKA-NH2 , which is < 1

Value of Selectivity Index reported for the substance H-KIAKGALKALKIAKGALKAL-NH2 is < 1

###

Reported MBC values for a set of substances
System: Klebsiella pneumoniae
MEASUREMENT NOTES: Bactericidal activity against Klebsiella pneumoniae ATCC 13883 after 18 hrs by microdilution method
Type: functional
TEST CONDITIONS: ATCC 13883, 18 h, read-out: MBC=>99.9

Data point: H-KIAKGALKALKIAKVALKAL-NH2 ; MBC = 2 µM

###

Tested on: Acinetobacter baumannii
MEASUREMENT NOTES: Antibacterial activity against clinical isolates of Acinetobacter baumannii after 18 hrs by microdilution method
Type: functional
Recorded measurements of MIC, one per entry

| SUBSTANCE | TARGET OR TEST SYSTEM | MIC |
| --- | --- | --- |
| H-KIGKALGKALKALGKALGKA-NH2 | Acinetobacter baumannii | 32 to 64 µM |

The value of MIC recorded for H-KIAKGALKALKIAKGALKAL-NH2 when tested on Acinetobacter baumannii reads > 64 µM

Field MIC (system: Acinetobacter baumannii) for entry H-KIAGKAGKIAKIAGKAGKIA-NH2 = > 64 µM

MIC on Acinetobacter baumannii for H-KIALKALKALKALGKALKAL-NH2 is 16 to 32 µM

Tested on Acinetobacter baumannii: H-KIAKGALKALKIAKVALKAL-NH2 . Observed MIC: 0.5 µM

###

Items are presented alongside their recorded MIC.
System: Escherichia coli
MEASUREMENT NOTES: Antibacterial activity against Escherichia coli ATCC 25922 after 18 hrs by microdilution method
Type: functional
TEST CONDITIONS: ATCC 25922, 18 h

| SUBSTANCE | RESULT |
| --- | --- |
| H-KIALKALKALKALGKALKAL-NH2 | 1 to 2 µM |
| H-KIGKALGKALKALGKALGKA-NH2 | 8 µM |
| H-KIAKGALKALKIAKGALKAL-NH2 | 4 µM |
| H-KIAGKAGKIAKIAGKAGKIA-NH2 | > 64 µM |

Shifting focus to the substance that follows.
MIC for Escherichia coli with input H-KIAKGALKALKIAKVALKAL-NH2 equals 0.25 to 0.5 µM
